# Tested on: full-length beta-Catenin (Uniprot ID P35222) (Homo sapiens, UniProt P35222)
# Construct: 10 nM full-length beta-Catenin (Uniprot ID P35222)
# Sequence (P35222 whole entry): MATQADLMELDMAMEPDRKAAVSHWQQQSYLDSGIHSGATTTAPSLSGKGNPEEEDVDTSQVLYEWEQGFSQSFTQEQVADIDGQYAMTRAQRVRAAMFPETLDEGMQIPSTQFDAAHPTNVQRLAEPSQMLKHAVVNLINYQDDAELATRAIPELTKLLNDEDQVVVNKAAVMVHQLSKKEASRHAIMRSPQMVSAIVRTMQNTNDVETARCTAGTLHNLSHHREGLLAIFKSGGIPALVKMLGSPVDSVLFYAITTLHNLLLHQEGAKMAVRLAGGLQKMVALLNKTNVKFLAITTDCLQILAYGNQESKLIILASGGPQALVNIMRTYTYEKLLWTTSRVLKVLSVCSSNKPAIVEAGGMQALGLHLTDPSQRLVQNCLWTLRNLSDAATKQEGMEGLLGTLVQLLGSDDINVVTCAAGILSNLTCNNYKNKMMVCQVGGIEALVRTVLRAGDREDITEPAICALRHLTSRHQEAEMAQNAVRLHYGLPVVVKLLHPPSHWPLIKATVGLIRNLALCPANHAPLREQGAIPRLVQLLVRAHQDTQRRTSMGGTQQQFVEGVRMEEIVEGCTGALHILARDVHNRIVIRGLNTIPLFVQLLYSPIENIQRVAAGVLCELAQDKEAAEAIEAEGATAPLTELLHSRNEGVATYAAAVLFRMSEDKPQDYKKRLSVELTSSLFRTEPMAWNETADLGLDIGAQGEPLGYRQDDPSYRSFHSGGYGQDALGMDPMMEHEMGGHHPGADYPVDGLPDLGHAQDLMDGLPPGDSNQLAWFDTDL
# Assay name: Fluorescence polarization IC50 (beta-catenin / 5FAM-TCF4 10-53 competition)
# Type: binding
# Experimental context: beta-Catenin FP IC50, fluorescence polarization
Readout: IC50 (nM)

1) CC(=O)N1CCC[C@]12CC=CCCCC1(CCCC=CCCCOC(=O)N3CC[C@@](C(=O)N[C@@H](Cc4ccccc4)C(=O)N[C@@H](Cc4csc5ccccc45)C(=O)N[C@@H](CO)C(N)=O)(C3)NC(=O)[C@H]([C@@H](C)O)NC(=O)[C@H](Cc3ccccc3)NC(=O)[C@H](C)NC(=O)[C@H](CC(C)C)NC(=O)[C@H]([C@@H](C)O)NC(=O)[C@H](CC(=O)O)NC1=O)NC(=O)[C@H](CC(C)(C)C)NC(=O)[C@H](CC(=O)O)NC2=O (stereo partly drawn): 157
2) CC(=O)N1CCC[C@]12CC=CCCCC1(CCCC=CCCCOC(=O)N3CC[C@@](C(=O)N[C@@H](Cc4ccsc4)C(=O)N[C@@H](Cc4csc5ccccc45)C(=O)N[C@@H](CC(C)C)C(N)=O)(C3)NC(=O)[C@H](CC(C)C)NC(=O)[C@H](Cc3ccccc3)NC(=O)[C@H](C)NC(=O)[C@H](C)NC(=O)[C@H](CC(=O)O)NC(=O)[C@H](CC(=O)O)NC1=O)NC(=O)[C@H](CC(C)C)NC(=O)[C@H](CC(=O)O)NC2=O (stereo partly drawn): 80
3) CC(=O)N1CCC[C@]12CC=CCCCC1(CCCC=CCCCOC(=O)N3CC[C@@](C(=O)N[C@@H](Cc4ccsc4)C(=O)N[C@@H](Cc4csc5ccccc45)C(=O)N[C@@H](CC(C)C)C(N)=O)(C3)NC(=O)[C@H](CC(C)C)NC(=O)[C@H](Cc3ccccc3)NC(=O)[C@H](C)NC(=O)[C@H](C)NC(=O)[C@H](CC(=O)O)NC(=O)[C@H](CC(=O)O)NC1=O)NC(=O)[C@H](CC(N)=O)NC(=O)[C@H](CC(=O)O)NC2=O (stereo partly drawn): 74
4) CC(=O)N1CCC[C@]12CC=CCCCC1(CCCC=CCCCOC(=O)N3CC[C@@](C(=O)N[C@@H](Cc4ccsc4)C(=O)N[C@@H](Cc4csc5ccccc45)C(=O)N[C@@H](CC(C)C)C(N)=O)(C3)NC(=O)[C@H](CC(C)C)NC(=O)[C@H](Cc3ccccc3)NC(=O)[C@H](C)NC(=O)[C@H](C)NC(=O)[C@H](CC(=O)O)NC(=O)[C@H](CC(=O)O)NC1=O)NC(=O)[C@H](CO)NC(=O)[C@H](CC(=O)O)NC2=O (stereo partly drawn): 84
5) CC(=O)N1CCC[C@]12CC=CCCCC1(CCCC=CCCCOC(=O)N3CC[C@@](C(=O)N[C@@H](Cc4ccsc4)C(=O)N[C@@H](Cc4csc5ccccc45)C(=O)N[C@@H](CC(C)C)C(N)=O)(C3)NC(=O)[C@H](CC(C)C)NC(=O)[C@H](Cc3ccccc3)NC(=O)[C@H](C)NC(=O)[C@H](C)NC(=O)[C@H](CC(=O)O)NC(=O)[C@H](CC(=O)O)NC1=O)NC(=O)[C@H]([C@@H](C)O)NC(=O)[C@H](CC(=O)O)NC2=O (stereo partly drawn): 72
6) CC(=O)N1CCC[C@]12CC=CCCCC1(CCCC=CCCCOC(=O)N3CC[C@@](C(=O)N[C@@H](Cc4ccccc4Cl)C(=O)N[C@@H](Cc4csc5ccccc45)C(=O)N[C@@H](CC(C)C)C(N)=O)(C3)NC(=O)[C@H](CC(C)C)NC(=O)[C@H](Cc3ccccc3)NC(=O)[C@H](C)NC(=O)[C@H](C)NC(=O)[C@H](CC(=O)O)NC(=O)[C@H](CC(=O)O)NC1=O)NC(=O)[C@H]([C@@H](C)O)NC(=O)[C@H](CC(=O)O)NC2=O (stereo partly drawn): 235
